system_tested: Tyrosyl-tRNA synthetase, putative (Trypanosoma cruzi (strain CL Brener)) (UniProt Q4DSP6)
Sequence (Q4DSP6 as listed by the source): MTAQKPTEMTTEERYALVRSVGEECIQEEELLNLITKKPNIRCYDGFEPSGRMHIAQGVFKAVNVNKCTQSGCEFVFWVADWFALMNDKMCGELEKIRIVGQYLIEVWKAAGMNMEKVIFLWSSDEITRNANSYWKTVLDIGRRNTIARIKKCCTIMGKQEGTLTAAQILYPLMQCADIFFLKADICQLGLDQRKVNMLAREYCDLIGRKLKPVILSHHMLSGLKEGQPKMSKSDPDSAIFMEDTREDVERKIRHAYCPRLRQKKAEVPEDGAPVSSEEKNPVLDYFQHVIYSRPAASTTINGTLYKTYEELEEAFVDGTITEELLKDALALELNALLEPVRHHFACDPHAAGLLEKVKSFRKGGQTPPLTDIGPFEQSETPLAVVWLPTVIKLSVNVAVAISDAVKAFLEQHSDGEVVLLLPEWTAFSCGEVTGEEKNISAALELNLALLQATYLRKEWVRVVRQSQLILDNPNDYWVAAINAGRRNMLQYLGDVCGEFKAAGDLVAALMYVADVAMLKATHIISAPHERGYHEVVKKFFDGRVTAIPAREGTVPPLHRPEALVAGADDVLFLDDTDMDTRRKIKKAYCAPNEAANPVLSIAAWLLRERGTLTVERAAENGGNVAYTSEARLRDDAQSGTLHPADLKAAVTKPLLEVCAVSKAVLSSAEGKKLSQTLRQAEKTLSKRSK
assay_remarks: Trypanosoma cruzi tyrosyl tRNA synthetase (TcYRS) _High Tyrosine SOP
Assay type: functional
Set-up: scale not given: in the data most compounds retested in dose-response had high values
condition_description: 30 µM
parameter_measured: Percent Effect (%)
Unit % implied. Number only.

Sample answers from the record:
1) Cn1ccnc1C(NCc1csc(Br)c1)c1ccccc1 (stereo not drawn): 12.9
2) Cc1c(F)cc(C(=O)O)cc1S(=O)(=O)Nc1cccc(C(F)F)c1: -1.44

Q: Would you kindly share the measured Percent Effect for Cc1ccc2cc(C3(O)CCN(C(=O)CN4CCCC4)CC3)ccc2n1 ?
Ans: 2.1

Q: Query: Percent Effect; subject: Cc1cccc(NC(=O)[C@@H]2CCCN2CC(=O)N2CCCCCC2)n1
Ans: 4.92

The measured values listed here are drawn from ChEMBL document CHEMBL3988442.
